# System: U-251
# Assay protocol: NCI tumour cell line growth inhibition, 48 h
Activity calls are given as the source filed them. Rule as the data show it: active = GI50 up to about 1.1 µM and inactive = higher.
Outcome measure: GI50

Here's what some known entries look like.
Compound: Cc1cc2ncc3c(=O)n(NS(=O)(=O)c4ccc(N)cc4)ccc3n2n1
Recorded value: > 100 µM (inactive)

Compound: CSCCC(NCc1c(O)ccc2c(-c3ccccc3)cc(=O)oc12)C(=O)O (centres undefined)
Recorded value: > 100 µM (inactive)

Compound: Cc1cc(C)nc(NS(=O)(=O)c2ccc(NNc3c4ccccc4nc4c(C(=O)Nc5ccc(S(N)(=O)=O)cc5)cccc34)cc2)n1
Recorded value: 14.1 µM (inactive)

Turning now to a further compound:
Req: For the compound shown here, CCOC(=O)C12C(C(=O)OC)=C(C)N(NC(=O)Nc3ccccc3)C1(N)N(NC(=O)Nc1ccccc1)C(C)=C2C(=O)OC (centres undefined) , give the reported GI50.
Resp: 17.7 µM (inactive)

----------
# Tested on: OVCAR-5
# Assay protocol: NCI tumour cell line growth inhibition, 48 h
Calls of active or inactive are those of the source. Cut-off read from the data, not from the text of the source: active = GI50 up to about 1.1 µM and inactive = higher.
Outcome measure: GI50

Compound: CCc1nc(N)nc(N)c1-c1ccc(Cc2ccccc2)c([N+](=O)[O-])c1
Target: OVCAR-5
Recorded value: > 55 µM (inactive)
//
Compound: CN1N=C(c2ccncc2)OC1c1ccc(Cl)c(Cl)c1 (stereo unspecified)
Target: OVCAR-5
Recorded value: > 100 µM (inactive)
//
Compound: Nc1nc(CC2(O)CCCCC2)cc(-c2ccccc2)n1
Target: OVCAR-5
Recorded value: 20.9 µM (inactive)
//
Compound: O=C(C=P(c1ccccc1)(c1ccccc1)c1ccccc1)C12CC3CC(CC(C3)C1)C2
Target: OVCAR-5
Recorded value: 17.1 µM (inactive)
//
Compound: O=C(/C=C/c1ccccc1)CCN1CCOCC1
Target: OVCAR-5
Recorded value: 15.7 µM (inactive)
//
Compound: N=C1/C(=C/c2ccco2)C(=O)N=C2SC=NN12
Target: OVCAR-5
Recorded value: > 100 µM (inactive)

Req: Fill in the blank: the reported GI50 of `Cc1ccc(N2C(=O)CS/C2=C(\C#N)c2nc3ccccc3[nH]2)cc1` is ____.
Resp: > 100 µM (inactive)

Req: Which value of GI50 has been reported for Cc1cn(C2CC(O)C(Cn3cc(Cn4nc(Br)c(=O)[nH]c4=O)nn3)O2)c(=O)[nH]c1=O (stereo unspecified) in the records?
Resp: > 100 µM (inactive)

Req: What value of measured GI50 is listed for `CCn1c(O)c(C(=O)Nc2cccs2)c(=O)n(CC)c1=S` ?
Resp: 23.7 µM (inactive)

Req: GI50 for `O=c1cc(N2CCN(c3cc(=O)n4ccccc4n3)CC2)oc2ccccc12` ?
Resp: > 100 µM (inactive)

Req: I am curious: what GI50 value has been reported for `Cc1cc(NCCCCCCCCCC[n+]2c(C)cc(N)c3ccccc32)c2ccccc2n1` ?
Resp: 4.2 µM (inactive)

Req: Which GI50 reading was recorded for the compound `CCCCCCCCCCCC(=O)Oc1c(Cl)cc(Cl)c(OC(=O)C(=O)Oc2c(Cl)cc(Cl)c(OC(=O)CCCCCCCCCCC)c2Cl)c1Cl` ?
Resp: > 100 µM (inactive)

Req: # query: GI50 of entry S=c1sc2c(n1-c1ccccc1)N=CNC2S (stereo unspecified)
Resp: > 100 µM (inactive)

Req: Value lookup for GI50; key = CN(C)c1ccc(C2CC(c3ccc4ccccc4c3O)=NN2)cc1 (stereo unspecified)
Resp: 80.7 µM (inactive)

Req: # get_value(readout='GI50', item= `CCOC(=O)c1cc2c(OC(C)=O)ccc(OC(C)=O)c2s1` )
Resp: 6.19 µM (inactive)

----------
# System: RPMI-8226
# Assay protocol: NCI tumour cell line growth inhibition, 48 h
Active and inactive are the calls of the source. Cut-off read from the data, not from the text of the source: active = GI50 up to about 1.1 µM and inactive = higher.
Outcome measure: GI50

Answered cases to consult:
Compound: O=C(NCC(O)CNC(=O)C(F)(F)F)C(F)(F)F
GI50: > 100 µM (inactive)

Compound: O=c1c2cc([N+](=O)[O-])ccc2n2n1Cc1ccccc1C2
GI50: > 100 µM (inactive)

Compound: O=C(/C=C/c1ccccc1)CCN1CCOCC1
GI50: 1.56 µM (inactive)

Compound: Cc1cccc(C(C)(C)C)c1NC(=O)CC1Sc2ccccc2NC1=O (stereo unspecified)
GI50: 19 µM (inactive)

Compound: Cn1c2ccccc2c(=S)c2ccccc21
GI50: > 100 µM (inactive)

Req: I'm curious: which GI50 was measured for `CCCCn1c2ccccc2c2ccc3c(c21)C(=O)C=CC3=O` tested on RPMI-8226?
Resp: > 100 µM (inactive)

Req: Notebook entry, RPMI-8226 assay: GI50 of `C#C[C@]1(O)[C@@H](CO)O[C@@H](n2ccc(N)nc2=O)[C@@H]1O` = ?
Resp: < 0.01 µM (active)

Req: Test system RPMI-8226; read-out GI50; what value for `CN(C)/C=N/n1c2ccccc2c2ccccc21` ?
Resp: > 100 µM (inactive)

Req: Lab note: need GI50 for `CN1C(=O)N/C(=C\c2ccc(S(=O)(=O)NN)cc2)C1=O` on RPMI-8226, anyone have it?
Resp: > 100 µM (inactive)

Req: So what GI50 did `c1c[nH]c(CN2CCOCC2)n1` get with RPMI-8226?
Resp: > 100 µM (inactive)

Req: Fill in the recorded GI50 for this compound, with RPMI-8226 as test system: CCOC(=O)C12C(C(=O)OC)=C(C)N(NC(=O)Nc3ccccc3)C1(N)N(NC(=O)Nc1ccccc1)C(C)=C2C(=O)OC (stereo unspecified)
Resp: 25.9 µM (inactive)

----------
# Test system: U-251
# Assay protocol: NCI tumour cell line growth inhibition, 48 h
The source made the active and inactive calls. Rule as the data show it: active = GI50 up to about 1.1 µM and inactive = higher.
Outcome measure: GI50

Compound: CCCC(=O)NC(Nc1ccc(F)cc1)(C(F)(F)F)C(F)(F)F
Target: U-251
Recorded value: > 100 µM (inactive)

Compound: O=C(C=P(c1ccccc1)(c1ccccc1)c1ccccc1)C12CC3CC(CC(C3)C1)C2
Target: U-251
Recorded value: 17.7 µM (inactive)

Compound: COc1cc2c(oc(=O)c3cc4cc([Si](C)(C)C)oc4c(OC)c32)c2cccc(O)c12
Target: U-251
Recorded value: > 100 µM (inactive)

Compound: Cn1c(=O)c2c(nc3n(Cc4ccccc4)c(=O)c(NCCCBr)cn23)n(C)c1=O
Target: U-251
Recorded value: 34.1 µM (inactive)

Compound: O=C(O)CNC(=O)c1ccc(-c2ccccc2)cc1
Target: U-251
Recorded value: > 100 µM (inactive)

Compound: COC1(OC)CCN(Cc2ccccc2)C1=O
Target: U-251
Recorded value: 17.3 µM (inactive)

Compound: CCCCCCCCCCCC(=O)Oc1c(Cl)cc(Cl)c(OC(=O)C(=O)Oc2c(Cl)cc(Cl)c(OC(=O)CCCCCCCCCCC)c2Cl)c1Cl
Target: U-251
Recorded value: > 100 µM (inactive)

Compound: CC1CC(C)CC(NC2=NCCO2)C1 (stereo not given)
Target: U-251
Recorded value: > 100 µM (inactive)

Compound: Cc1cc(C)c(P2C(=C(O[Si](C(C)C)(C(C)C)C(C)C)C(C)(C)C)C2(c2ccccc2)c2ccccc2)c(C)c1 (stereo not given)
Target: U-251
Recorded value: > 100 µM (inactive)

Req: For U-251, provide GI50 of `CCOC(=O)c1cc2c(OC(C)=O)ccc(OC(C)=O)c2s1` please.
Resp: 2.97 µM (inactive)

----------
Recorded GI50 for the following molecules
# System: DU-145
# Assay protocol: NCI tumour cell line growth inhibition, 48 h
Active and inactive are the calls of the source. Cut-off read from the data, not from the text of the source: active = GI50 up to about 1.1 µM and inactive = higher.

Past entries and their recorded results:
Molecule: Cc1ccc(-n2cc(-c3ccc(Cl)cc3)c3c(NNC(=S)NCc4ccccc4)ncnc32)cc1
Recorded value: 24.9 µM (inactive)
//
Molecule: O=C(O)c1ccc(CI)cc1
Recorded value: 18.4 µM (inactive)
//
Molecule: COc1cc2c(cc1O)NC(=O)[C@@H]1C[C@@H](O)CN1C2=O
Recorded value: > 100 µM (inactive)
//
Molecule: CNc1ccc(C(=O)CC(O)CCC(C)C2OC(=O)CC(O)CC(=O)CC(O)CC(O)CC(O)CC(O)CC3(O)CC(O)C(C(=O)NCCN(C)C)C(CC(OC4OC(C)C(O)C(NC(=O)CN5CCN(C)CC5)C4O)\C=C/C=C\C=C/C=C/C=C/C=C\C=C/C2C)O3)cc1 (stereo not given)
Recorded value: 3.22 µM (inactive)
//
Molecule: NNC(=O)CCSc1ccccc1
Recorded value: > 100 µM (inactive)

Req: API: value(readout=GI50, system=DU-145) for record CSCCC(NOC(=O)Cc1ccccc1)P(=O)(O)c1ccccc1 (stereo not given)
Resp: > 100 µM (inactive)

Req: Kindly state the measured GI50 obtained for `O=C(COc1ccc(OCC(=O)N2C(=O)CN(c3ccc(Cl)cc3)C2=S)cc1)N1C(=O)CN(c2ccc(Cl)cc2)C1=S` with DU-145.
Resp: 43.2 µM (inactive)

Req: Fill in the recorded GI50 for this molecule, with DU-145 as test system: `CCc1nc(N)nc(N)c1-c1ccc(Cc2ccccc2)c([N+](=O)[O-])c1`
Resp: 0.0585 µM (active)

Req: State its GI50 on DU-145: `O=c1oc2cccnc2n1CCN1CCN(c2ccc(Oc3ccccc3)cc2)CC1`
Resp: > 100 µM (inactive)
